# Tested on: human subcutaneoous mature adipocytes
# EXPERIMENT: Lipolytic activity: glycerol release in human adipocytes (Lipolysis Assay kit)
# Type: cell-based
# MEASUREMENT CONDITIONS: 25 μg/ml; human subcutaneous mature adipocytes
Where no end group is shown, it is not given here. [ ]: non-standard residue; d: D form. The star is where a group is joined. Palmitoyl = CCCCCCCCCCCCCCCC(=O)*; Propionyl = CCC(=O)*
REPORTED METRIC: Lipolysis Activity measured as Glycerol (μM) release in media (µM)
Answers are plain numbers, in µM.

Report the value of Lipolysis Activity measured as Glycerol (μM) release in media obtained on human subcutaneoous mature adipocytes for Ac-TWDPEGVIFY (Ac-[dT][dW][dD][dP][dE]G[dV][dI][dF][dY]) [GP3D-Ac, N-term CH3CONH, C-term COOH] . 16.56

The following substances each have a reported value; give each one's Lipolysis Activity measured as Glycerol (μM) release in media.
1. NDEGLY [GP3DM-23] (H-[dN][dD][dE]G[dL][dY]-OH; SMILES CC(C)C[C@@H](NC(=O)CNC(=O)[C@@H](CCC(=O)O)NC(=O)[C@@H](CC(=O)O)NC(=O)[C@H](N)CC(N)=O)C(=O)N[C@H](Cc1ccc(O)cc1)C(=O)O) [N-term NH2, C-term COOH]
2. DPEGVI (H-[dD][dP][dE]G[dV][dI]-OH; SMILES CC[C@@H](C)[C@@H](NC(=O)[C@H](NC(=O)CNC(=O)[C@@H](CCC(=O)O)NC(=O)[C@H]1CCCN1C(=O)[C@H](N)CC(=O)O)C(C)C)C(=O)O) [GP3D-6 I II IX X, N-term NH2, C-term COOH]
3. NDPEGY (H-[dN][dD][dP][dE]G[dY]-OH; SMILES NC(=O)C[C@@H](N)C(=O)N[C@H](CC(=O)O)C(=O)N1CCC[C@@H]1C(=O)N[C@H](CCC(=O)O)C(=O)NCC(=O)N[C@H](Cc1ccc(O)cc1)C(=O)O) [GP3DM-20, N-term NH2, C-term COOH]
4. EtCONH-NDLEGLY (Propionyl-[dN][dD][dL][dE]G[dL][dY]-OH; SMILES CCC(=O)N[C@H](CC(N)=O)C(=O)N[C@H](CC(=O)O)C(=O)N[C@H](CC(C)C)C(=O)N[C@H](CCC(=O)O)C(=O)NCC(=O)N[C@H](CC(C)C)C(=O)N[C@H](Cc1ccc(O)cc1)C(=O)O) [GP3DM-26, N-term CH3CH2CONH, C-term COOH]
5. CH3(CH2)14CONH-NDLEGLY (Palmitoyl-[dN][dD][dL][dE]G[dL][dY]-OH; SMILES CCCCCCCCCCCCCCCC(=O)N[C@H](CC(N)=O)C(=O)N[C@H](CC(=O)O)C(=O)N[C@H](CC(C)C)C(=O)N[C@H](CCC(=O)O)C(=O)NCC(=O)N[C@H](CC(C)C)C(=O)N[C@H](Cc1ccc(O)cc1)C(=O)O) [GP3DM-28, N-term CH3(CH2)14CONH, C-term COOH]

1: 139.7; 2: 17.01; 3: 128.1; 4: 98.4; 5: 50.5

The following substances each have a reported value; give each one's Lipolysis Activity measured as Glycerol (μM) release in media.
1. DPEGVIF (H-[dD][dP][dE]G[dV][dI][dF]-OH; SMILES CC[C@@H](C)[C@@H](NC(=O)[C@H](NC(=O)CNC(=O)[C@@H](CCC(=O)O)NC(=O)[C@H]1CCCN1C(=O)[C@H](N)CC(=O)O)C(C)C)C(=O)N[C@H](Cc1ccccc1)C(=O)O) [GP3D-7 I II X, N-term NH2, C-term COOH]
2. NDEGLFY (H-[dN][dD][dE]G[dL][dF][dY]-OH; SMILES CC(C)C[C@@H](NC(=O)CNC(=O)[C@@H](CCC(=O)O)NC(=O)[C@@H](CC(=O)O)NC(=O)[C@H](N)CC(N)=O)C(=O)N[C@H](Cc1ccccc1)C(=O)N[C@H](Cc1ccc(O)cc1)C(=O)O) [GP3DM-19, N-term NH2, C-term COOH]
3. Ac-NDLEGLY-NH2 (Ac-[dN][dD][dL][dE]G[dL][dY]-NH2; SMILES CC(=O)N[C@H](CC(N)=O)C(=O)N[C@H](CC(=O)O)C(=O)N[C@H](CC(C)C)C(=O)N[C@H](CCC(=O)O)C(=O)NCC(=O)N[C@H](CC(C)C)C(=O)N[C@H](Cc1ccc(O)cc1)C(N)=O) [GP3DM-29, N-term CH3CONH, C-term CONH2]
4. WDPEGVF (H-[dW][dD][dP][dE]G[dV][dF]-OH; SMILES CC(C)[C@@H](NC(=O)CNC(=O)[C@@H](CCC(=O)O)NC(=O)[C@H]1CCCN1C(=O)[C@@H](CC(=O)O)NC(=O)[C@H](N)Cc1c[nH]c2ccccc12)C(=O)N[C@H](Cc1ccccc1)C(=O)O) [GP3D-7 I VIII X, N-term NH2, C-term COOH]
5. Ac-NDPEGLY (Ac-[dN][dD][dP][dE]G[dL][dY]-OH; SMILES CC(=O)N[C@H](CC(N)=O)C(=O)N[C@H](CC(=O)O)C(=O)N1CCC[C@@H]1C(=O)N[C@H](CCC(=O)O)C(=O)NCC(=O)N[C@H](CC(C)C)C(=O)N[C@H](Cc1ccc(O)cc1)C(=O)O) [Acetyl-NH-EDL67, N-term CH3CONH, C-term COOH]
6. NDLEGLY (H-[dN][dD][dL][dE]G[dL][dY]-OH; SMILES CC(C)C[C@@H](NC(=O)CNC(=O)[C@@H](CCC(=O)O)NC(=O)[C@@H](CC(C)C)NC(=O)[C@@H](CC(=O)O)NC(=O)[C@H](N)CC(N)=O)C(=O)N[C@H](Cc1ccc(O)cc1)C(=O)O) [GP3DM-21, N-term NH2, C-term COOH]
7. NDPEGLY (H-[dN][dD][dP][dE]G[dL][dY]-OH; SMILES CC(C)C[C@@H](NC(=O)CNC(=O)[C@@H](CCC(=O)O)NC(=O)[C@H]1CCCN1C(=O)[C@@H](CC(=O)O)NC(=O)[C@H](N)CC(N)=O)C(=O)N[C@H](Cc1ccc(O)cc1)C(=O)O) [GP3D-DM5, N-term NH2, C-term COOH]

1: 17.04; 2: 87.1; 3: 123.8; 4: 14.57; 5: 66.2; 6: 116.5; 7: 21.84

----------
# Test system: human subcutaneoous mature adipocytes
# EXPERIMENT: Lipolytic activity: glycerol release in human adipocytes (Lipolysis Assay kit)
# Format: cell-based
# MEASUREMENT CONDITIONS: 25 μg/ml; human subcutaneous mature adipocytes
[ ]: non-standard residue; d: D form.
Provide the reported Lipolysis Activity measured as Glycerol (μM) release in media of each item.
Numbers only, in µM.

Specify measured Lipolysis Activity measured as Glycerol (μM) release in media for NDEGLY [GP3DM-22] (H-[dN][dD][dE]G[dL][dY]-OH; SMILES CC(C)C[C@@H](NC(=O)CNC(=O)[C@@H](CCC(=O)O)NC(=O)[C@@H](CC(=O)O)NC(=O)[C@H](N)CC(N)=O)C(=O)N[C@H](Cc1ccc(O)cc1)C(=O)O) [N-term NH2, C-term COOH] . 52.1

The following substances each have a reported value; give each one's Lipolysis Activity measured as Glycerol (μM) release in media.
1. Ac-NDLEGLY (Ac-[dN][dD][dL][dE]G[dL][dY]-OH; SMILES CC(=O)N[C@H](CC(N)=O)C(=O)N[C@H](CC(=O)O)C(=O)N[C@H](CC(C)C)C(=O)N[C@H](CCC(=O)O)C(=O)NCC(=O)N[C@H](CC(C)C)C(=O)N[C@H](Cc1ccc(O)cc1)C(=O)O) [GP3DM-25, N-term CH3CONH, C-term COOH]
2. DPEGVIY (H-[dD][dP][dE]G[dV][dI][dY]-OH; SMILES CC[C@@H](C)[C@@H](NC(=O)[C@H](NC(=O)CNC(=O)[C@@H](CCC(=O)O)NC(=O)[C@H]1CCCN1C(=O)[C@H](N)CC(=O)O)C(C)C)C(=O)N[C@H](Cc1ccc(O)cc1)C(=O)O) [GP3D-7 I II IX, N-term NH2, C-term COOH]
3. DPEGLFY (H-[dD][dP][dE]G[dL][dF][dY]-OH; SMILES CC(C)C[C@@H](NC(=O)CNC(=O)[C@@H](CCC(=O)O)NC(=O)[C@H]1CCCN1C(=O)[C@H](N)CC(=O)O)C(=O)N[C@H](Cc1ccccc1)C(=O)N[C@H](Cc1ccc(O)cc1)C(=O)O) [GP3D-DM2, N-term NH2, C-term COOH]
4. WDPEGLY (H-[dW][dD][dP][dE]G[dL][dY]-OH; SMILES CC(C)C[C@@H](NC(=O)CNC(=O)[C@@H](CCC(=O)O)NC(=O)[C@H]1CCCN1C(=O)[C@@H](CC(=O)O)NC(=O)[C@H](N)Cc1c[nH]c2ccccc12)C(=O)N[C@H](Cc1ccc(O)cc1)C(=O)O) [GP3D-DM1, N-term NH2, C-term COOH]

134.2
19.68
15.77
15.94
